# System: Staphylococcus epidermidis
# assay-summary: Bactericidal activity against Staphylococcus epidermidis assessed as reduction in bacterial growth incubated for 24 hrs followed by replating on MH broth and further incubated for 24 hrs by CLSI broth microdilution method
# Format: functional
# condition-description: Staphylococcus epidermidis, read-out: MBC
endpoint-name: MBC (µg/mL)
Give bare numbers, in µg/mL.

The reported MBC of the compound CCCC[N+](C)(C)CCCNC(=O)COc1c2cc(C(C)(C)C)cc1Sc1cc(C(C)(C)C)cc(c1OCC(=O)NCCC[N+](C)(C)CCCC)Sc1cc(C(C)(C)C)cc(c1OCC(=O)NCCC[N+](C)(C)CCCC)Sc1cc(C(C)(C)C)cc(c1OCC(=O)NCCC[N+](C)(C)CCCC)S2.[Cl-].[Cl-].[Cl-].[Cl-] was 8

The reported MBC of the compound CCCCCCCCCC[N+](C)(C)CCCNC(=O)COc1c2cc(C(C)(C)C)cc1Sc1cc(C(C)(C)C)cc(c1OCC(=O)NCCC[N+](C)(C)CCCCCCCCCC)Sc1cc(C(C)(C)C)cc(c1OCC(=O)NCCC[N+](C)(C)CCCCCCCCCC)Sc1cc(C(C)(C)C)cc(c1OCC(=O)NCCC[N+](C)(C)CCCCCCCCCC)S2.[Cl-].[Cl-].[Cl-].[Cl-] was 16

The reported MBC of the compound CC(C)(C)c1cc2c(OCC(=O)NCCC[N+](C)(C)Cc3ccccc3)c(c1)Sc1cc(C(C)(C)C)cc(c1OCC(=O)NCCC[N+](C)(C)Cc1ccccc1)Sc1cc(C(C)(C)C)cc(c1OCC(=O)NCCC[N+](C)(C)Cc1ccccc1)Sc1cc(C(C)(C)C)cc(c1OCC(=O)NCCC[N+](C)(C)Cc1ccccc1)S2.[Cl-].[Cl-].[Cl-].[Cl-] was 32

The reported MBC of the compound CCCCCCCC[N+](C)(C)CCCNC(=O)COc1c2cc(C(C)(C)C)cc1Sc1cc(C(C)(C)C)cc(c1OCC(=O)NCCC[N+](C)(C)CCCCCCCC)Sc1cc(C(C)(C)C)cc(c1OCC(=O)NCCC[N+](C)(C)CCCCCCCC)Sc1cc(C(C)(C)C)cc(c1OCC(=O)NCCC[N+](C)(C)CCCCCCCC)S2.[Cl-].[Cl-].[Cl-].[Cl-] was 2

The reported MBC of the compound CC(C)(C)c1cc2c(OCC(=O)NCCC[N+](C)(C)C)c(c1)Sc1cc(C(C)(C)C)cc(c1OCC(=O)NCCC[N+](C)(C)C)Sc1cc(C(C)(C)C)cc(c1OCC(=O)NCCC[N+](C)(C)C)Sc1cc(C(C)(C)C)cc(c1OCC(=O)NCCC[N+](C)(C)C)S2.[Cl-].[Cl-].[Cl-].[Cl-] was 32

New cases:
The reported MBC of the compound CCCCCCCCCCCCCC(=O)NCCC[N+](C)(C)Cc1ccccc1.[Cl-] [MIRAMISTIN] was 32

----------
# System: Escherichia coli
# assay-summary: Antibacterial activity against Escherichia coli ATCC 25922 assessed as reduction in bacterial growth incubated for 24 hrs by CLSI broth microdilution method
# Type: functional
# condition-description: Escherichia coli, ATCC 25922, 24 h, read-out: MIC
endpoint-name: MIC (µg/mL)
Numbers only, in µg/mL.

The reported MIC of the compound CCCOc1c2cc(C[N+](C)(C)CCO)cc1Cc1cc(C[N+](C)(C)CCO)cc(c1OCCC)Cc1cc(C[N+](C)(C)CCO)cc(c1OCCC)Cc1cc(C[N+](C)(C)CCO)cc(c1OCCC)C2.[Cl-].[Cl-].[Cl-].[Cl-] was 32
